- assay.remarks: Multi-component pharmacokinetic study of GQD, GQD-GC and single herb extracts in rats (plasma, LC/MS/MS)
- Assay type: in vivo, Sprague-Dawley rats
- measurement.parameters: male, Sprague-Dawley, rat, in vivo, po, 18.9 g/kg
readout.kind: Tmax (h)

(P) COc1cc2c(cc1OC)-c1cc3ccc(OC)c(OC)c3c[n+]1CC2 [Compound 25, palmatine]
(Q) c1c2c(cc3c1OCO3)-c1cc3ccc4c(c3c[n+]1CC2)OCO4 [Compound 21, coptisine]
(R) CC1(C(=O)O)CCC2(C)CCC3(C)C(=CC(=O)C4C5(C)CCC(OC6OC(C(=O)O)C(O)C(O)C6OC6OC(C(=O)O)C(O)C(O)C6O)C(C)(CO)C5CCC43C)C2C1 (centres unmarked) [Compound 35, licorice saponin G2]
(S) O=C1C[C@@H](c2ccc(O[C@@H]3O[C@H](CO)[C@@H](O)[C@H](O)[C@H]3O)cc2)Oc2cc(O)ccc21 [Compound 26, liquiritin]
**Query** Arrange the above in rising order of Tmax. Field: ranking. Enter the labels in the order requested.
**Result** P, Q, S, R
(P: 0.17 h, Q: 0.74 h, S: 2.5 h, R: 3.89 h)

====

- assay.remarks: Multi-component pharmacokinetic study of GQD, GQD-GC and single herb extracts in rats (plasma, LC/MS/MS)
- Format: in vivo, Sprague-Dawley rats
- measurement.parameters: male, Sprague-Dawley, rat, plasma, po, 18.9 g/kg, GQD group: rats, oral GQD extract 18.9 g/kg, plasma; read-out: AUClast
readout.kind: AUC(0-t) (ng·h/mL)

Take a look at these entries with their results.
structure.as.smiles	u	AUC(0-t)
COc1ccc(-c2coc3cc(O)ccc3c2=O)cc1	ng·h/mL	94.2
O=C(/C=C/c1ccc(O)cc1)c1ccc(O)cc1O	ng·h/mL	39.2
CC1(C)[C@@H](O)CC[C@]2(C)[C@H]3C(=O)C=C4[C@@H]5C[C@@](C)(C(=O)O)CC[C@]5(C)CC[C@@]4(C)[C@]3(C)CC[C@@H]12	ng·h/mL	8480
COc1c(O)cc(O)c2c(=O)cc(-c3ccccc3)oc12	ng·h/mL	282

(A) COc1ccc2c(c1O)-c1c(O)c(OC)cc3c1[C@H](C2)[N+](C)(C)CC3
(B) COc1ccc2cc3[n+](cc2c1OC)CCc1cc2c(cc1-3)OCO2
**Query** Of the two listed items, which has the higher AUC(0-t)? First: A Second: B Answer by quoting the chosen item's label.
**Result** B
(B: 389 ng·h/mL, A: 198 ng·h/mL)

====

- assay.remarks: Multi-component pharmacokinetic study of GQD, GQD-GC and single herb extracts in rats (plasma, LC/MS/MS)
- Assay type: in vivo, Sprague-Dawley rats
- measurement.parameters: male, Sprague-Dawley, rat, in vivo; GC (Gan-Cao) group: rats, oral extract 2.36 g/kg, plasma; read-out: Tmax
readout.kind: Tmax (min)
The figure you give is taken to be in min; do not add the unit.

**Query** I would be grateful if you could share the reported Tmax for O=C(/C=C/c1ccc(O[C@@H]2O[C@H](CO)[C@@H](O)[C@H](O)[C@H]2O)cc1)c1ccc(O)cc1O .
**Result** 24

====

- assay.remarks: Multi-component pharmacokinetic study of GQD, GQD-GC and single herb extracts in rats (plasma, LC/MS/MS)
- Format: in vivo, Sprague-Dawley rats
- measurement.parameters: male, Sprague-Dawley, rat, in vivo, po, 16.5 g/kg
readout.kind: Cmax (ng/mL)

molecule	u	data.value
O=c1c(-c2ccc(O)cc2)coc2cc(O)ccc12 [Compound 3, daidzein]	ng/mL	83.5

(P) COc1cc2c(cc1OC)-c1cc3ccc(OC)c(OC)c3c[n+]1CC2 [Compound 25, palmatine]
(Q) c1c2c(cc3c1OCO3)-c1cc3ccc4c(c3c[n+]1CC2)OCO4 [Compound 21, coptisine]
**Query** Which entry has a larger number for Cmax, P or Q ? State the label of the item chosen.
**Result** Q

====

- assay.remarks: Multi-component pharmacokinetic study of GQD, GQD-GC and single herb extracts in rats (plasma, LC/MS/MS)
- Format: in vivo, Sprague-Dawley rats
- measurement.parameters: male, Sprague-Dawley, rat, plasma, po, 18.9 g/kg, GQD group: rats, oral GQD extract 18.9 g/kg, plasma; read-out: AUClast
readout.kind: AUC(0-t) (ng·h/mL)

compound	AUC(0-t) [ng·h/mL]
COc1ccc(C2=CC(=O)OC2Cc2ccc(O)cc2)c(OC2OC(CO)C(O)C(O)C2O)c1 [Compound 41, (4S)-puerol B 2″-O-glucopyranoside]	37.5

(A) COc1c(CC=C(C)C)c(O)cc2oc(=O)c(-c3ccc(O)cc3O)cc12
(B) O=C(O)[C@H]1O[C@@H](Oc2cc(O)c3c(=O)cc(-c4ccccc4)oc3c2O)[C@H](O)[C@@H](O)[C@@H]1O [Compound 14, norwogonin 7-O-glucuronide]
**Query** In terms of reported AUC(0-t), does A or B have the smaller number? Response format: the label of the selected entry.
**Result** A

====

- assay.remarks: Multi-component pharmacokinetic study of GQD, GQD-GC and single herb extracts in rats (plasma, LC/MS/MS)
- Assay type: in vivo, Sprague-Dawley rats
- measurement.parameters: male, Sprague-Dawley, rat, plasma, po, 3.54 g/kg, HQ (Huang-Qin) group: rats, oral extract 3.54 g/kg, plasma; read-out: AUClast
readout.kind: AUC(0-t) (ng·h/mL)

These solved cases illustrate the format of a correct answer.
compound	AUC(0-t) [ng·h/mL]
O=c1cc(-c2ccccc2)oc2cc(O)c(O)c(O)c12 [Compound 12, baicalein]	19.5
COc1c(O)cc(OC2OC(CO)C(O)C(O)C2O)c2c(=O)cc(-c3ccccc3)oc12 (stereo not drawn) [Compound 13, wogonin 5-O-glucoside]	42.8
O=C(O)[C@H]1O[C@@H](Oc2cc3oc(-c4ccccc4)cc(=O)c3c(O)c2O)[C@H](O)[C@@H](O)[C@@H]1O [Compound 17, baicalin]	52600

(I) COc1c(O)cc(O)c2c(=O)cc(-c3ccccc3)oc12 [Compound 8, wogonin]
(II) COc1c(O)c(O[C@@H]2O[C@H](C(=O)O)[C@@H](O)[C@H](O)[C@H]2O)cc2oc(-c3ccccc3)cc(=O)c12 [Compound 38, lateriflorein 7-O-glucuronide]
(III) O=C(O)[C@H]1O[C@@H](Oc2cc(O)c3c(=O)cc(-c4ccccc4)oc3c2O)[C@H](O)[C@@H](O)[C@@H]1O [Compound 14, norwogonin 7-O-glucuronide]
**Query** Falling order of AUC(0-t), please. Sort the labels as requested; that list is your answer.
**Result** III, II, I

====

- assay.remarks: Multi-component pharmacokinetic study of GQD, GQD-GC and single herb extracts in rats (plasma, LC/MS/MS)
- Assay type: in vivo, Sprague-Dawley rats
- measurement.parameters: male, Sprague-Dawley, rat, in vivo, po, 9.45 g/kg, AUClast
readout.kind: AUC(0-t) (ng·h/mL)
Number only, in ng·h/mL; omit the unit.

**Query** # lookup: AUC(0-t) of O=c1c(-c2ccc(O)cc2)coc2cc(O)ccc12
**Result** 2640

====

- assay.remarks: Multi-component pharmacokinetic study of GQD, GQD-GC and single herb extracts in rats (plasma, LC/MS/MS)
- Assay type: in vivo, Sprague-Dawley rats
- measurement.parameters: male, Sprague-Dawley, rat, in vivo, po, 18.9 g/kg, AUClast
readout.kind: AUC(0-t) (ng·h/mL)

molecule	readout.kind	data.value
O=c1c(-c2ccc(O)cc2)coc2cc(O)ccc12	AUC(0-t)	3050

(1) O=C1C[C@@H](c2ccc(O)cc2)Oc2cc(O)ccc21
(2) CC1(C(=O)O)CCC2(C)CCC3(C)C(=CC(=O)C4C5(C)CCC(OC6OC(C(=O)O)C(O)C(O)C6OC6OC(C(=O)O)C(O)C(O)C6O)C(C)(CO)C5CCC43C)C2C1 (stereo not drawn)
(3) COc1cc2c(cc1OC)-c1cc3ccc(OC)c(OC)c3c[n+]1CC2
**Query** Place the items in sequence of falling AUC(0-t). A complete answer lists every label in the requested sequence.
**Result** 1, 2, 3

====

- assay.remarks: Multi-component pharmacokinetic study of GQD, GQD-GC and single herb extracts in rats (plasma, LC/MS/MS)
- Type: in vivo, Sprague-Dawley rats
- measurement.parameters: male, Sprague-Dawley, rat, in vivo, po, 2.36 g/kg, GC (Gan-Cao) group: rats, oral extract 2.36 g/kg, plasma; read-out: AUClast
readout.kind: AUC(0-t) (ng·h/mL)
Unit ng·h/mL implied. Number only.

**Query** Bench note: what AUC(0-t) did O=C(/C=C/c1ccc(O[C@@H]2O[C@H](CO)[C@@H](O)[C@H](O)[C@H]2O)cc1)c1ccc(O)cc1O show?
**Result** 8.46

====

- assay.remarks: Multi-component pharmacokinetic study of GQD, GQD-GC and single herb extracts in rats (plasma, LC/MS/MS)
- Assay type: in vivo, Sprague-Dawley rats
- measurement.parameters: male, Sprague-Dawley, rat, plasma, po, 9.45 g/kg, GG (Ge-Gen) group: rats, oral extract 9.45 g/kg, plasma; read-out: AUClast
readout.kind: AUC(0-t) (ng·h/mL)

molecule	AUC(0-t) / ng·h/mL
COc1ccc(-c2coc3c(C4OC(COC5OCC(O)(CO)C5O)C(O)C(O)C4O)c(O)ccc3c2=O)cc1 (stereo not drawn)	85
COc1ccc(-c2coc3cc(O[C@@H]4O[C@H](CO)[C@@H](O)[C@H](O)[C@H]4O)ccc3c2=O)cc1	139
O=c1c(-c2ccc(O)cc2)coc2c([C@@H]3O[C@H](CO)[C@@H](O)[C@H](O)[C@H]3O)c(O)ccc12	5020
O=c1c(-c2ccc(O)cc2)coc2cc(O[C@@H]3O[C@H](CO)[C@@H](O)[C@H](O)[C@H]3O)cc(O)c12	51.7

(P) COc1ccc(C2=CC(=O)OC2Cc2ccc(O)cc2)c(OC2OC(CO)C(O)C(O)C2O)c1 [Compound 41, (4S)-puerol B 2″-O-glucopyranoside]
(Q) O=c1c(-c2ccc(O)cc2)coc2c(C3OC(COC4OCC(O)(CO)C4O)C(O)C(O)C3O)c(O)cc(O)c12 (stereo not drawn)
**Query** // which entry has the larger AUC(0-t) value, P or Q ? Lab log: write the label of the selected item as the result.
**Result** Q
